IC50 values, listed per item
- Assayed target: Epidermal growth factor receptor (Homo sapiens)
- Sequence (P00533 whole entry): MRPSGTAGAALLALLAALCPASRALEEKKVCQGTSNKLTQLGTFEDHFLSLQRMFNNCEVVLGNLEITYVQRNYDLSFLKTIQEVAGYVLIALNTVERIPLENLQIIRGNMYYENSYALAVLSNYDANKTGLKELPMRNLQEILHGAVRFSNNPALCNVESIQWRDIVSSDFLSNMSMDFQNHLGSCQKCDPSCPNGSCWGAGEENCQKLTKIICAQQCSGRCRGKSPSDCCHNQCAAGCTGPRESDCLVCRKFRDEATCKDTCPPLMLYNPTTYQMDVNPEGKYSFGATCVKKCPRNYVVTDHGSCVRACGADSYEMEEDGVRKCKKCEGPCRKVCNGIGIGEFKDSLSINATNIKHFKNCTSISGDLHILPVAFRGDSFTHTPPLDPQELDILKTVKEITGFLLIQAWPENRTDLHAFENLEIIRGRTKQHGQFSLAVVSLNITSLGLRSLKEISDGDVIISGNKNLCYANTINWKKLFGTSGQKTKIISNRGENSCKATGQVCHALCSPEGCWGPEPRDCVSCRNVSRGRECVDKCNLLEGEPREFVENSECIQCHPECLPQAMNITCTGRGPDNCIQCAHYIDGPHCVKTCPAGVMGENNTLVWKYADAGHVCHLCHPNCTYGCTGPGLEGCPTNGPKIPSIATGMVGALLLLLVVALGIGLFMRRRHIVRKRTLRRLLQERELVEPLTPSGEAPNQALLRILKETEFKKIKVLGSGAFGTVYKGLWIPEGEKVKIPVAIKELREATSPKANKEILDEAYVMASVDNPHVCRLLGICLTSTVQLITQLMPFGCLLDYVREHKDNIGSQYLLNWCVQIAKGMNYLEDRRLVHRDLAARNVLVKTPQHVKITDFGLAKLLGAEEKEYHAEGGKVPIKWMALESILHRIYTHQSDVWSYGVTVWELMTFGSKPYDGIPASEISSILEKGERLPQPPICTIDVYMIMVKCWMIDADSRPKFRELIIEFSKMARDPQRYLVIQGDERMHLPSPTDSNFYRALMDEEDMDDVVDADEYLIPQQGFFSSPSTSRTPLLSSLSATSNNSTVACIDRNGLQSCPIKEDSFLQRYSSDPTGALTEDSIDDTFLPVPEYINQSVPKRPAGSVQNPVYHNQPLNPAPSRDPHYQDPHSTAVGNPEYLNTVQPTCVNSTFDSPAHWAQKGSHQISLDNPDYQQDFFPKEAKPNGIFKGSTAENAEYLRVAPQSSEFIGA
- Format: cell-based, KB
- Description: Inhibition of EGFR in human KB cells assessed as reduction in EGF-stimulated EGFR phosphorylation preincubated for 1 hr followed by EGF stimulation and measured after 6 mins by ELISA
Write it as a number; the unit nM goes unstated.

Some entries whose results are on file:
{"Molecule smiles": "O=C(/C=C/CN1CCCCC1)N1CCCOc2cc3ncnc(Nc4ccc(OCc5cccc(F)c5)c(Cl)c4)c3cc21", "Measurement unit": "nM", "IC50": 844}
{"Molecule smiles": "CN(C)C/C=C/C(=O)N1CCOc2cc3ncnc(Nc4ccc(OCc5cccc(F)c5)c(Cl)c4)c3cc21", "Measurement unit": "nM", "IC50": 126}
{"Molecule smiles": "O=C(/C=C/CN1CCCCC1)N1CCOc2cc3ncnc(Nc4ccc(OCc5cccc(F)c5)c(Cl)c4)c3cc21", "Measurement unit": "nM", "IC50": 116}

Query: Fill blank: measured IC50 of the compound "CN(C)C/C=C/C(=O)N1CCCOc2cc3ncnc(Nc4ccc(OCc5cccc(F)c5)c(Cl)c4)c3cc21" is ____.
Result: 446

###

IC50 values, listed per item
- Assayed target: Epidermal growth factor receptor (Homo sapiens)
- Format: cell-based, KB
Write it as a number; the unit nM goes unstated.

Query: Fill blank: measured IC50 of the compound CC1CCCCN1C/C=C/C(=O)N1CCOc2cc3ncnc(Nc4ccc(OCc5cccc(F)c5)c(Cl)c4)c3cc21 (centres undefined) is ____.
Result: 179

Query: Fill blank: measured IC50 of the compound "CCN(CC)C/C=C/C(=O)N1CCOc2cc3ncnc(Nc4ccc(OCc5cccc(F)c5)c(Cl)c4)c3cc21" is ____.
Result: 163

Query: Fill blank: measured IC50 of the compound "CN1CCN(C/C=C/C(=O)N2CCOc3cc4ncnc(Nc5ccc(OCc6cccc(F)c6)c(Cl)c5)c4cc32)CC1" is ____.
Result: 45

###

pIC50 values, listed per item
- Test system: BT-474
- Test protocol: cells
- Assay type: functional, cell-based
- Protocol conditions: Homo sapiens, BT-474, 72 h
- Description: Antiproliferative activity against human BT474 cells overexpressing HER2 assessed as cell growth inhibition measured after 72 hrs by MTT assay
Remember, pIC50 is on a log scale: it is -log10 of the molar concentration.

Some entries whose results are on file:
{"Molecule": "CS(=O)(=O)CCNCc1ccc(-c2ccc3ncnc(Nc4ccc(OCc5cccc(F)c5)c(Cl)c4)c3c2)o1 [LAPATINIB]", "Experimental readout": "pIC50", "Meas value": 7.43}
{"Molecule": "O=C(/C=C/CN1CCCCC1)N1CCOc2cc3ncnc(Nc4ccc(OCc5cccc(F)c5)c(Cl)c4)c3cc21", "Experimental readout": "pIC50", "Meas value": 6.93}
{"Molecule": "CCN(CC)C/C=C/C(=O)N1CCOc2cc3ncnc(Nc4ccc(OCc5cccc(F)c5)c(Cl)c4)c3cc21", "Experimental readout": "pIC50", "Meas value": 7.24}
{"Molecule": "CN1CCN(C/C=C/C(=O)N2CCCOc3cc4ncnc(Nc5ccc(OCc6cccc(F)c6)c(Cl)c5)c4cc32)CC1", "Experimental readout": "pIC50", "Meas value": 5.77}

Query: Fill blank: measured pIC50 of the molecule CC1CCCCN1C/C=C/C(=O)N1CCCOc2cc3ncnc(Nc4ccc(OCc5cccc(F)c5)c(Cl)c4)c3cc21 (stereo not drawn) is ____.
Result: 6.00

###

- Assayed target: Epidermal growth factor receptor (Homo sapiens)
- Assay type: cell-based, KB
Experimental readout: IC50 (nM)
Write it as a number; the unit nM goes unstated.

Some entries whose results are on file:
{"Compound": "O=C(/C=C/CN1CCOCC1)N1CCOc2cc3ncnc(Nc4ccc(OCc5cccc(F)c5)c(Cl)c4)c3cc21", "Assayed target": "Epidermal growth factor receptor (Homo sapiens)", "IC50 [nM]": 12}
{"Compound": "O=C(/C=C/CN1CCCC1)N1CCOc2cc3ncnc(Nc4ccc(OCc5cccc(F)c5)c(Cl)c4)c3cc21", "Assayed target": "Epidermal growth factor receptor (Homo sapiens)", "IC50 [nM]": 121}
{"Compound": "CC1CCN(C/C=C/C(=O)N2CCCOc3cc4ncnc(Nc5ccc(OCc6cccc(F)c6)c(Cl)c5)c4cc32)CC1", "Assayed target": "Epidermal growth factor receptor (Homo sapiens)", "IC50 [nM]": 4870}
{"Compound": "O=C(/C=C/CN1CCCC1)N1CCCOc2cc3ncnc(Nc4ccc(OCc5cccc(F)c5)c(Cl)c4)c3cc21", "Assayed target": "Epidermal growth factor receptor (Homo sapiens)", "IC50 [nM]": 578}
{"Compound": "CCN(CC)C/C=C/C(=O)N1CCCOc2cc3ncnc(Nc4ccc(OCc5cccc(F)c5)c(Cl)c4)c3cc21", "Assayed target": "Epidermal growth factor receptor (Homo sapiens)", "IC50 [nM]": 80}

Query: Fill blank: measured IC50 of the compound CC1CCCCN1C/C=C/C(=O)N1CCCOc2cc3ncnc(Nc4ccc(OCc5cccc(F)c5)c(Cl)c4)c3cc21 (stereo not drawn) is ____.
Result: 5830

Query: Fill blank: measured IC50 of the compound "CN1CCN(C/C=C/C(=O)N2CCCOc3cc4ncnc(Nc5ccc(OCc6cccc(F)c6)c(Cl)c5)c4cc32)CC1" is ____.
Result: 4870

Query: Fill blank: measured IC50 of the compound "O=C(/C=C/Cn1ccnc1)N1CCOc2cc3ncnc(Nc4ccc(OCc5cccc(F)c5)c(Cl)c4)c3cc21" is ____.
Result: 120

###

IC50 values, listed per item
- Assayed target: Epidermal growth factor receptor (Homo sapiens)
The number alone won't do; follow it with the unit.

Some entries whose results are on file:
{"Molecule smiles": "O=C(/C=C/CN1CCCC1)N1CCOc2cc3ncnc(Nc4ccc(OCc5cccc(F)c5)c(Cl)c4)c3cc21", "Experimental readout": "IC50", "Meas value": "7 nM"}
{"Molecule smiles": "CN1CCN(C/C=C/C(=O)N2CCOc3cc4ncnc(Nc5ccc(OCc6cccc(F)c6)c(Cl)c5)c4cc32)CC1", "Experimental readout": "IC50", "Meas value": "6 nM"}
{"Molecule smiles": "O=C(/C=C/CN1CCOCC1)N1CCOc2cc3ncnc(Nc4ccc(OCc5cccc(F)c5)c(Cl)c4)c3cc21", "Experimental readout": "IC50", "Meas value": "7 nM"}

Please examine the following record next.
Query: API: value(readout= IC50, system= Epidermal growth factor receptor (Homo sapiens), query= "CCN(CC)C/C=C/C(=O)N1CCOc2cc3ncnc(Nc4ccc(OCc5cccc(F)c5)c(Cl)c4)c3cc21" )
Result: 8 nM

###

- System: BT-474
- Test protocol: cells
- Format: functional, cell-based
- Protocol conditions: Homo sapiens, BT-474, 72 h
log10 IC50 values, listed per item
Log10 applied to IC50; unit prior to transform: nM.

Some entries whose results are on file:
{"Molecule": "O=C(/C=C/CN1CCOCC1)N1CCOc2cc3ncnc(Nc4ccc(OCc5cccc(F)c5)c(Cl)c4)c3cc21", "Assayed target": "BT-474", "Experimental readout": "log10 IC50", "Meas value": 1.18}
{"Molecule": "CC1CCN(C/C=C/C(=O)N2CCCOc3cc4ncnc(Nc5ccc(OCc6cccc(F)c6)c(Cl)c5)c4cc32)CC1", "Assayed target": "BT-474", "Experimental readout": "log10 IC50", "Meas value": 3.00}
{"Molecule": "O=C(/C=C/Cn1ccnc1)N1CCOc2cc3ncnc(Nc4ccc(OCc5cccc(F)c5)c(Cl)c4)c3cc21", "Assayed target": "BT-474", "Experimental readout": "log10 IC50", "Meas value": 1.68}
{"Molecule": "O=C(/C=C/CN1CCCC1)N1CCOc2cc3ncnc(Nc4ccc(OCc5cccc(F)c5)c(Cl)c4)c3cc21", "Assayed target": "BT-474", "Experimental readout": "log10 IC50", "Meas value": 1.78}
{"Molecule": "CCN(CC)C/C=C/C(=O)N1CCCOc2cc3ncnc(Nc4ccc(OCc5cccc(F)c5)c(Cl)c4)c3cc21", "Assayed target": "BT-474", "Experimental readout": "log10 IC50", "Meas value": 2.06}
{"Molecule": "CC1CCN(C/C=C/C(=O)N2CCOc3cc4ncnc(Nc5ccc(OCc6cccc(F)c6)c(Cl)c5)c4cc32)CC1", "Assayed target": "BT-474", "Experimental readout": "log10 IC50", "Meas value": 2.30}
{"Molecule": "CC1CCCCN1C/C=C/C(=O)N1CCOc2cc3ncnc(Nc4ccc(OCc5cccc(F)c5)c(Cl)c4)c3cc21 (stereo not drawn)", "Assayed target": "BT-474", "Experimental readout": "log10 IC50", "Meas value": 2.10}

Please examine the following record next.
Query: Fill blank: measured log10 IC50 of the molecule "CN(C)C/C=C/C(=O)N1CCCOc2cc3ncnc(Nc4ccc(OCc5cccc(F)c5)c(Cl)c4)c3cc21" is ____.
Result: 2.10

###

- Assayed target: Receptor tyrosine-protein kinase erbB-2 (Homo sapiens)
- Sequence (P04626 whole entry): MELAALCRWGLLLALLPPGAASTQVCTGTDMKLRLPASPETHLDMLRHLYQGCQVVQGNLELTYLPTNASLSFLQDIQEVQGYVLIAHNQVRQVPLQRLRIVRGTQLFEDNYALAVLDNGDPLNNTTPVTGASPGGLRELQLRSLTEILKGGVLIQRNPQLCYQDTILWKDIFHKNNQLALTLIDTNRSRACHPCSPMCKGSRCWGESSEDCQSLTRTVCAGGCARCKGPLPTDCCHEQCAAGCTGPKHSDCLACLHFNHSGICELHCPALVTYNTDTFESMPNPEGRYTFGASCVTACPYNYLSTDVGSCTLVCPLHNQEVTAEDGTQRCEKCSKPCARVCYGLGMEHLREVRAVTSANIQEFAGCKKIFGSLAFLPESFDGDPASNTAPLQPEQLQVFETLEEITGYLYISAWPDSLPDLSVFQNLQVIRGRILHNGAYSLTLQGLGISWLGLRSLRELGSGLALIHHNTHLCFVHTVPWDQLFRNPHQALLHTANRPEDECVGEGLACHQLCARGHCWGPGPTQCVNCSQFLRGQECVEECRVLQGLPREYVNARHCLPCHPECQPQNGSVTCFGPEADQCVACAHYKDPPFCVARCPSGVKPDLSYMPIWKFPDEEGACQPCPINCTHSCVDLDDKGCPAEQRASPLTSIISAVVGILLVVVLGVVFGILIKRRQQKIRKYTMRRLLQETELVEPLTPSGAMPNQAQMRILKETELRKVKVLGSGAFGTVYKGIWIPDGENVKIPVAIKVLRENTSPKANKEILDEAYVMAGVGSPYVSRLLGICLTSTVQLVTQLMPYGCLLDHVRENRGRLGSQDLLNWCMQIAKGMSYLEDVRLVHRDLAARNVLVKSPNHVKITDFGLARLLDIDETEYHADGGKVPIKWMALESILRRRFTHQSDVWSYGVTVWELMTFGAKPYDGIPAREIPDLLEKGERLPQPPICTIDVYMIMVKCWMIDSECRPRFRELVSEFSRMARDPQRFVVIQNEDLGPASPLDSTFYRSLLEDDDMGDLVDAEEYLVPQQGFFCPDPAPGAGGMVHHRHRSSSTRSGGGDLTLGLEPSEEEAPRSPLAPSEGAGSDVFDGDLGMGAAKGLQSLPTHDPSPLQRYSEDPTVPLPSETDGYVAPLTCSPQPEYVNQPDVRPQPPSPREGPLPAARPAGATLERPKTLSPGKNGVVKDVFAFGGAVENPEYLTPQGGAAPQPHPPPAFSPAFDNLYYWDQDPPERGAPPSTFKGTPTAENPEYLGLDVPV
Experimental readout: pIC50
Remember, pIC50 is on a log scale: it is -log10 of the molar concentration.

Query: Fill blank: measured pIC50 of the compound "O=C(/C=C/CN1CCCC1)N1CCOc2cc3ncnc(Nc4ccc(OCc5cccc(F)c5)c(Cl)c4)c3cc21" is ____.
Result: 8.40

Query: Fill blank: measured pIC50 of the compound "O=C(/C=C/CN1CCOCC1)N1CCOc2cc3ncnc(Nc4ccc(OCc5cccc(F)c5)c(Cl)c4)c3cc21" is ____.
Result: 7.92
